Counter-ions that a name gives are not always drawn.
# GST tagged IRAK4 (Homo sapiens (Human), UniProt Q9NWZ3): IC50 values follow
# Sequence (Q9NWZ3 whole entry): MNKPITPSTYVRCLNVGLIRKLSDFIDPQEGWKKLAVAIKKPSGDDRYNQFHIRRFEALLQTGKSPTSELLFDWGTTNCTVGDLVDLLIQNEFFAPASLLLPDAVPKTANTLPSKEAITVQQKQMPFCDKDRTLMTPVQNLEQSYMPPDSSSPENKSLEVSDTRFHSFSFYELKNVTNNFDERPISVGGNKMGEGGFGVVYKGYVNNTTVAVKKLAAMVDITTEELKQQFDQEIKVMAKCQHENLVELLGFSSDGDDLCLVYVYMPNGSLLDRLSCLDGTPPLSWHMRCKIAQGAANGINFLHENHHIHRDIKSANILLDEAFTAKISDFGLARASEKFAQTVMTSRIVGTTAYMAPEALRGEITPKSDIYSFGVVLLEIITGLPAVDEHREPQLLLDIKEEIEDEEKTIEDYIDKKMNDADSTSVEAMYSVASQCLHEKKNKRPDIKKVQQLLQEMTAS
ATTRIBUTE_MEASURED: IC50 (µM)

O=C(Nc1ccsc1C(F)(F)F)c1ccc2cnc(N3C[C@@H]4CC[C@H]3CN4)nn12 (single isomer, unassigned) [Example 86, trifluoroacetate]; 2.27
N#Cc1sccc1NC(=O)c1ccc2cnc(N3CCC[C@@H](N)C3)nn12 [Example 141, trifluoroacetate]; 0.026
N[C@@H]1[C@H](Nc2ncc3ccc(C(=O)Nc4ccsc4Cl)n3n2)CCCC1(F)F [Example 97, trifluoroacetate]; 1.91

====

# GST tagged IRAK4 (Homo sapiens (Human)): log10(IC50) values follow
Counter-ions that a name gives are not always drawn.
ATTRIBUTE_MEASURED: log10(IC50) (log10 of the value in nM)

Cn1cc(NC(=O)c2ccc3cnc(N[C@H]4CCCCNC4)nn23)c(C(F)F)n1 (single isomer, unassigned) [Example 91, trifluoroacetate]; 0.00
Cn1cc(NC(=O)c2ccc3cnc(N[C@@H]4CCCC(F)(F)[C@@H]4N)nn23)c(Cl)n1 [Example 79, trifluoroacetate]; 2.36
O=C(Nc1ccccc1Br)c1ccc2cnc(N3C[C@H]4CC[C@@H]3CN4)nn12 (single isomer, unassigned) [Example 77, trifluoroacetate]; 3.29
Cn1cc(NC(=O)c2ccc3cnc(N4C[C@H]5CC[C@@H]4CN5)nn23)c(Br)n1 (single isomer, unassigned) [Example 64, trifluoroacetate]; 2.09
O=C(Nc1ccsc1Br)c1ccc2cnc(N3C[C@@H]4CC[C@H]3CN4)nn12 (single isomer, unassigned) [Example 48, trifluoroacetate]; 3.22
O=C(Nc1cscc1C(F)F)c1ccc2cnc(N3C[C@H]4CC[C@@H]3CN4)nn12 (single isomer, unassigned) [Example 81, trifluoroacetate]; 1.80
N#Cc1ccccc1NC(=O)c1ccc2cnc(N[C@H]3CCCCNC3)nn12 (single isomer, unassigned) [Example 60, trifluoroacetate]; 0.90
Cn1cc(NC(=O)c2ccc3cnc(N4CCCNCC4)nn23)c(Cl)n1 [Example 26, trifluoroacetate]; 1.79
Cn1cc(NC(=O)c2ccc3cnc(N[C@@H]4CCCC[C@@H]4N)nn23)c(Cl)n1 [Example 25, trifluoroacetate]; 0.00
O=C(Nc1ccccc1C(F)(F)F)c1ccc2cnc(N3CCCNCC3)nn12 [Example 28, trifluoroacetate]; 3.60
N[C@H]1CCCC[C@H]1Nc1ncc2ccc(C(=O)Nc3ccccc3C(F)F)n2n1 [Example 56, trifluoroacetate]; 1.94
Cn1cc(NC(=O)c2ccc3cnc(N4C[C@H]5CC[C@@H]4CN5)nn23)c(C#N)n1 (single isomer, unassigned) [Example 47, trifluoroacetate]; 2.42
N[C@H]1CCCC[C@H]1Nc1ncc2ccc(C(=O)Nc3ccsc3C(F)(F)F)n2n1 [Example 88, trifluoroacetate]; 1.76
Cn1cc(NC(=O)c2ccc3cnc(N4CCC[C@@H](N)C4)nn23)c(C#N)n1 [Example 125, trifluoroacetate]; 0.00
Cn1cc(NC(=O)c2ccc3cnc(N[C@@H]4CCCC[C@@H]4O)nn23)c(C#N)n1 [Example 122, trifluoroacetate]; 1.30
Cn1cc(NC(=O)c2ccc3cnc(N4CCCNCC4)nn23)c(C#N)n1 [Example 34, trifluoroacetate]; 2.55
N[C@H]1CCCC[C@H]1Nc1ncc2ccc(C(=O)Nc3cscc3Br)n2n1 [Example 14, trifluoroacetate]; 0.78
O=C(Nc1ccccc1C(F)F)c1ccc2cnc(N3C[C@@H]4CC[C@H]3CN4)nn12 (single isomer, unassigned) [Example 61, trifluoroacetate]; 4.00
Cn1cc(NC(=O)c2ccc3cnc(N[C@@H]4CCCC(F)(F)[C@@H]4N)nn23)c(C#N)n1 [Example 98, trifluoroacetate]; 1.93
N#Cc1ccccc1NC(=O)c1ccc2cnc(N3CCC[C@@H](N)C3)nn12 [Example 51, trifluoroacetate]; 2.20
Cn1cc(NC(=O)c2ccc3cnc(N4C[C@@H](N)C[C@@H](F)C4)nn23)c(C(F)F)n1 [Example 151, formate]; -0.10
O=C(Nc1ccsc1C(F)(F)F)c1ccc2cnc(N3C[C@H]4CC[C@@H]3CN4)nn12 (single isomer, unassigned) [Example 87, trifluoroacetate]; 3.16
O=C(Nc1ccccc1Cl)c1ccc2cnc(N3CCCNCC3)nn12 [Example 39, trifluoroacetate]; 2.36
Cn1cc(NC(=O)c2ccc3cnc(N[C@@H]4CCCC[C@@H]4N)nn23)cn1 [Example 169, trifluoroacetate]; 1.54
O=C(Nc1ccccc1C(F)(F)F)c1ccc2cnc(N3C[C@H]4CC[C@@H]3CN4)nn12 (single isomer, unassigned) [Example 68, trifluoroacetate]; 2.34
Cn1cc(NC(=O)c2ccc3cnc(N4CCNCC5(CC5)C4)nn23)c(C(F)(F)F)n1 [Example 9, trifluoroacetate]; 0.85

====

target: GST tagged IRAK4 (Homo sapiens (Human))
pIC50: −log10 of the molar value. Counter-ions that a name gives are not always drawn.
Decide by pIC50: equal to or exceeding 7 means label 1, less means label 0.

N#Cc1sccc1NC(=O)c1ccc2cnc(N3CC4CCC3CN4)nn12 (stereo not shown) [Example 22, trifluoroacetate]; label 0
O=C(Nc1ccsc1C(F)(F)F)c1ccc2cnc(N3CCCNCC3)nn12 [Example 85, trifluoroacetate]; label 0
O=C(Nc1ccccc1Br)c1ccc2cnc(N3CCCNCC3)nn12 [Example 33, trifluoroacetate]; label 0
N#Cc1cscc1NC(=O)c1ccc2cnc(N3CCC[C@H](N)C3)nn12 [Example 143, trifluoroacetate]; label 1
Cn1cc(NC(=O)c2ccc3cnc(N[C@H]4CCC(F)(F)C[C@H]4N)nn23)c(C(F)(F)F)n1 (single isomer, unassigned) [Example 128, trifluoroacetate]; label 1
N[C@H]1CCCC[C@H]1Nc1ncc2ccc(C(=O)Nc3ccsc3Br)n2n1 [Example 38, trifluoroacetate]; label 1
Cn1cc(NC(=O)c2ccc3cnc(N4C[C@@H](N)C[C@H](F)C4)nn23)c(C(F)F)n1 [Example 157, trifluoroacetate]; label 1
Cn1cc(NC(=O)c2ccc3cnc(N[C@@H]4CCCC(F)(F)[C@@H]4N)nn23)c(C(F)(F)F)n1 [Example 8, trifluoroacetate]; label 0
Cn1cc(NC(=O)c2ccc3cnc(N4CC5CCC4CN5)nn23)c(C(F)F)n1 (stereo not shown) [Example 29, trifluoroacetate]; label 1
O=C(Nc1ccccc1Cl)c1ccc2cnc(N3C[C@@H]4CC[C@H]3CN4)nn12 (single isomer, unassigned) [Example 65, trifluoroacetate]; label 0
Cn1cc(NC(=O)c2ccc3cnc(N[C@@H]4CCCC[C@@H]4O)nn23)c(C(F)F)n1 [Example 17, trifluoroacetate]; label 1
O=C(Nc1ccsc1Br)c1ccc2cnc(N3C[C@H]4CC[C@@H]3CN4)nn12 (single isomer, unassigned) [Example 49, trifluoroacetate]; label 0

====

target: GST tagged IRAK4 (Homo sapiens (Human))
pIC50: −log10 of the molar value. Where a name gives a salt, the structure may show the parent alone.
ATTRIBUTE_MEASURED: pIC50

COCCn1cc(NC(=O)c2ccc3cnc(N[C@@H]4CCCC[C@@H]4N)nn23)cn1 [Example 168, trifluoroacetate]; 6.52
Cn1cc(NC(=O)c2ccc3cnc(N4CCNCC4)nn23)c(C(F)F)n1 [Example 11, trifluoroacetate]; 8.52
N[C@H]1CCCC[C@H]1Nc1ncc2ccc(C(=O)Nc3ccsc3Cl)n2n1 [Example 30, trifluoroacetate]; 8.52
O=C(Nc1cscc1Br)c1ccc2cnc(N3CC4CCC3CN4)nn12 (centres unmarked) [Example 24, trifluoroacetate]; 6.17
Cn1cc(NC(=O)c2ccc3cnc(N[C@@H]4CCCCNC4)nn23)c(C(F)(F)F)n1 (single isomer, unassigned) [Example 72, trifluoroacetate]; 8.40
Cn1cc(NC(=O)c2ccc3cnc(N4C[C@@H]5CC[C@H]4CN5)nn23)c(Cl)n1 (single isomer, unassigned) [Example 44, trifluoroacetate]; 6.90
N[C@H]1CCCC[C@H]1Nc1ncc2ccc(C(=O)Nc3cscc3C(F)F)n2n1 [Example 42, trifluoroacetate]; 8.40
Cn1cc(NC(=O)c2ccc3cnc(N[C@H]4CNC[C@H](F)C4)nn23)c(C(F)F)n1 [Example 165, trifluoroacetate]; 9.00
Cn1cc(NC(=O)c2ccc3cnc(N[C@@H]4CCC(F)(F)C[C@@H]4N)nn23)c(C(F)(F)F)n1 (single isomer, unassigned) [Example 132, trifluoroacetate]; 6.18
N#Cc1sccc1NC(=O)c1ccc2cnc(N[C@@H]3CCCC[C@@H]3O)nn12; 6.40
N[C@@H]1[C@H](Nc2ncc3ccc(C(=O)Nc4ccccc4Cl)n3n2)CCCC1(F)F [Example 138, trifluoroacetate]; 5.79
N[C@H]1CCCC[C@H]1Nc1ncc2ccc(C(=O)Nc3ccccc3Cl)n2n1 [Example 40, trifluoroacetate]; 8.52
Cn1cc(NC(=O)c2ccc3cnc(N4C5CCC4CNC5)nn23)c(C(F)(F)F)n1 [Example 96, trifluoroacetate]; 8.30
N[C@@H]1[C@H](Nc2ncc3ccc(C(=O)Nc4cscc4C(F)F)n3n2)CCCC1(F)F [Example 93, trifluoroacetate]; 6.53
